# Protocol summary: Quantitative highthroughput screen to assess conditional lethalithy of P12 Ichikawa cells grown in RPMI1640 with dialyzed fetal bovine serum (RPMI+ds) (AID 1963880); also: nearly all actives have a fitted effect of over 35% in size; also: potency is read from the fitted curve at half-maximal effect
# Test context: ATP luminescence, 48 h; P12-Ichikawa viability; series mostly up to 45.8 µM
Records with an inconclusive call do not appear. Active and inactive are the calls of the source. Calls follow the shape of the dose curve; as a rule, active = well fitted cell-killing curve with a large enough effect; inconclusive = small, poorly fitted or top-dose-only effect; inactive = flat fitted curve, though single readings scatter.
Experimental endpoint: Potency

Below, 4 compounds whose answers are already recorded.
>>> test_value("N#CC(=C(N)Sc1ccc(N)cc1)c1ccccc1C(F)(F)F")
"inactive"
>>> test_value("O=C(CCCCCCNC(=O)c1cnc(N(c2ccccc2)c2ccccc2)nc1)NO")
"5.9 µM (active)"
>>> test_value("CN[C@H]1CCc2cc(OC)c(OC)c(OC)c2-c2ccc(OC)c(=O)cc21")
"0.0105 µM (active)"
>>> test_value("O=C(O)COCCN1CCN(C(c2ccccc2)c2ccc(Cl)cc2)CC1 (centres undefined)")
"inactive"

Read the next record carefully.
Which value of Potency has been reported for "COc1cc2ncnc(Nc3ccc(F)c(Cl)c3)c2cc1OCCCN1CCOCC1" in the records? inactive

* * *

# Protocol summary: Viability qHTS for spleen associated tyrosine kinase inhibitor (SYKi) naive MV4-11 cells (AID 1963823); also: nearly all actives have a fitted effect of over 40% in size
# Test context: MV4-11 AML viability, CellTiter-Glo luminescence, 72 h; series mostly up to 45 µM
Results filed as inconclusive are left out. Calls of active or inactive are those of the source. The call rests on the fitted dose curve; in most records, active means well fitted cell-killing curve with a large enough effect; inconclusive means small, poorly fitted or top-dose-only effect, or effect the other way; inactive means no such curve, though single readings can be large or run the other way.
Return exactly one item of YES (active), NO (inactive)

For this compound, state the assay outcome: "Cc1nc(NC(=O)N2CCC[C@H]2C(N)=O)sc1-c1ccnc(C(C)(C)C(F)(F)F)c1" YES

For this compound, state the assay outcome: "O=c1cc(-c2cccc(O)c2)oc2c(O)c(O)ccc12" YES

For this compound, state the assay outcome: CC1(C(=O)O)CCCC2(C)C3CCC4CC3(CCC12)CC4=O (stereo not given) YES

For this compound, state the assay outcome: "Nc1nc(NC2CC2)cc(-c2cccc(Cl)c2Cl)n1" YES

For this compound, state the assay outcome: "C[C@H]1COc2c(N3CCN(C)CC3)c(F)cc3c(=O)c(C(=O)O)cn1c23" NO

For this compound, state the assay outcome: "O=C(O)/C=C/c1ccc(Cn2ccnc2)cc1" NO

For this compound, state the assay outcome: "CCN(CC)CC1CCN(c2ncc3ncnc(Nc4ccc(F)c(Cl)c4)c3n2)CC1" YES

For this compound, state the assay outcome: "O=C(/C=C\n1cnc(-c2cc(C(F)(F)F)cc(C(F)(F)F)c2)n1)N1CC(F)(F)C1" YES

For this compound, state the assay outcome: C=C(C)C1CCC2(C(=O)O)CCC3(C(=O)O)C(CCC4C5(C)CCC(O)C(C)(C(=O)O)C5CCC43C)C12 (stereo not given) NO

For this compound, state the assay outcome: "Cc1cnc(NS(=O)(=O)c2ccc(N)cc2)nc1" NO

For this compound, state the assay outcome: CC12CCC3c4ccc(O)cc4CCC3C1CCC2OC1OC(C(=O)O)C(O)C(O)C1O (stereo not given) NO

For this compound, state the assay outcome: "COC1=C(OC)C(=O)C(CCCCCCCCCCO)=C(C)C1=O" YES

For this compound, state the assay outcome: "COC(=O)[C@]1(C)CCC[C@@]2(C)[C@@H]3CC[C@@H]4C[C@@]3(CC[C@@H]21)C[C@H]4C(=O)O" NO

For this compound, state the assay outcome: "Cc1cc(CN2CCN(c3c(Br)cnc4nc(-c5ccc(N6CCN(C)CC6)cc5)[nH]c34)CC2)no1" YES

For this compound, state the assay outcome: "COc1ccc(-c2ccc3cc(C(=O)O)ccc3c2)cc1C12CC3CC(CC(C3)C1)C2" YES

For this compound, state the assay outcome: "O=C(Cc1ccccc1)OC[C@H]1O[C@H](O[C@H]2O[C@H](CO)[C@@H](O)[C@H](O)[C@H]2O)[C@H](O)[C@@H](O)[C@@H]1O" NO

For this compound, state the assay outcome: COC(=O)C1(O)C(OC(C)=O)CCC2C3(CC(c4ccoc4)OC3=O)C(C)=CCC21C(=O)OC (stereo not given) NO

For this compound, state the assay outcome: CNC1(C)C2CCC(C2)C1(C)C (stereo not given) NO

For this compound, state the assay outcome: Cc1cc2c(F)c(Oc3ncnn4cc(OCC(C)OC(=O)C(C)N)c(C)c34)ccc2[nH]1 (stereo not given) YES

For this compound, state the assay outcome: CC1CCC2C(C)(C)C(O)CCC2(C)C12Cc1c(O)cc3c(c1O2)CN(C(CCCN=C(N)N)C(=O)O)C3=O (stereo not given) YES

Recorded values, source PubChem BioAssay (NCATS).
